Biological target: human TLR9 (Homo sapiens (Human))
Sequence (Q9NR96 26-1032): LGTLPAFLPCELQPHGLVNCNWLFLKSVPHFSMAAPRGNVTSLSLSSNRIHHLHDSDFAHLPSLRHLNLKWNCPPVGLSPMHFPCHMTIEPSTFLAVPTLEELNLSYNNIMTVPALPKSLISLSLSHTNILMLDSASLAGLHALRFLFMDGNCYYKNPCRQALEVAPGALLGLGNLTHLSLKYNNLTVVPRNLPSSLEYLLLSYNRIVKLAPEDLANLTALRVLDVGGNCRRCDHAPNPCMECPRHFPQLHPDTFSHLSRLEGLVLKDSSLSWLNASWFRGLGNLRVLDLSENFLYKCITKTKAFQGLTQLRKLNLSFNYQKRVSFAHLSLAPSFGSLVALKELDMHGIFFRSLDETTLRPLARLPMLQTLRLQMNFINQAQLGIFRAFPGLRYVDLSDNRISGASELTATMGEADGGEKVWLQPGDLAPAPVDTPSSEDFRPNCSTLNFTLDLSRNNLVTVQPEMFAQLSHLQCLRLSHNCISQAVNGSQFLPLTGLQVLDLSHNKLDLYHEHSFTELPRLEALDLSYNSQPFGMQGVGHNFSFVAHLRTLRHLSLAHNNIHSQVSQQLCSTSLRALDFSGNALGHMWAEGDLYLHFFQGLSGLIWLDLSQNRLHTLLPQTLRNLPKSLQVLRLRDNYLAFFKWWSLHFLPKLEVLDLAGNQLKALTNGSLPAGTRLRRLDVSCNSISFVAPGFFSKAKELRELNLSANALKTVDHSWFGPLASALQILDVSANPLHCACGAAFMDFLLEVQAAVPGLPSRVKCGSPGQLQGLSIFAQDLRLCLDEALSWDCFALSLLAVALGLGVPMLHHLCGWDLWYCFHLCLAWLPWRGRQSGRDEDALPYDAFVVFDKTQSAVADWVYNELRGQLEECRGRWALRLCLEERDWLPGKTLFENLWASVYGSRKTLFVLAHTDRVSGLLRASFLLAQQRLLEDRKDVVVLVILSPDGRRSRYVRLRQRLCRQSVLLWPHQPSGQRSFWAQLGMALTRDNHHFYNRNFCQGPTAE
Test: TLR9 inhibition reporter assay (HEK-Blue, SEAP)
Details: HEK-Blue cells overexpressing human TLR9, ODN2006 5 nM stimulation
pIC50: −log10 of the molar value.
Classify by measured pIC50: 1 if it is equal to or exceeds 6, -1 if it is smaller.

{"MOLECULE": "Cc1cc(-c2[nH]c3ccc(-c4nc(C(=O)N[C@H]5CC[C@H](N)CC5)co4)cc3c2C(C)C)cc(C)n1 [Example 282]", "GROUP LABEL": -1}
{"MOLECULE": "COc1ccc(-c2[nH]c3ccc(-c4cccc(C(=O)N5CCN(c6ccncc6)CC5)c4)cc3c2CC(F)(F)F)cc1OC [Example 36]", "GROUP LABEL": -1}
{"MOLECULE": "CCc1c(-c2ccnc(C)c2)[nH]c2ccc(-c3noc(CN(C)C)n3)cc12 [Example 453]", "GROUP LABEL": -1}
{"MOLECULE": "CC(C)c1c(-c2ccnc3[nH]ncc23)[nH]c2ccc(-c3nnc(C4CCN(CC(=O)N(C)C)CC4)o3)cc12 [Example 87]", "GROUP LABEL": -1}

Now for a further molecule.
Ask: Please check the record Cc1cc(-c2[nH]c3ccc(-c4nnc(C(=O)NCCN(C)C)s4)cc3c2C(C)C)ccn1 [Example 133] and state if its pIC50 is at or above 6.
Reply: 1

* * *

Each entry below carries its reported pIC50.
Biological target: UniProtKB Q9NYK1
Sequence (Q9NYK1 27-1049): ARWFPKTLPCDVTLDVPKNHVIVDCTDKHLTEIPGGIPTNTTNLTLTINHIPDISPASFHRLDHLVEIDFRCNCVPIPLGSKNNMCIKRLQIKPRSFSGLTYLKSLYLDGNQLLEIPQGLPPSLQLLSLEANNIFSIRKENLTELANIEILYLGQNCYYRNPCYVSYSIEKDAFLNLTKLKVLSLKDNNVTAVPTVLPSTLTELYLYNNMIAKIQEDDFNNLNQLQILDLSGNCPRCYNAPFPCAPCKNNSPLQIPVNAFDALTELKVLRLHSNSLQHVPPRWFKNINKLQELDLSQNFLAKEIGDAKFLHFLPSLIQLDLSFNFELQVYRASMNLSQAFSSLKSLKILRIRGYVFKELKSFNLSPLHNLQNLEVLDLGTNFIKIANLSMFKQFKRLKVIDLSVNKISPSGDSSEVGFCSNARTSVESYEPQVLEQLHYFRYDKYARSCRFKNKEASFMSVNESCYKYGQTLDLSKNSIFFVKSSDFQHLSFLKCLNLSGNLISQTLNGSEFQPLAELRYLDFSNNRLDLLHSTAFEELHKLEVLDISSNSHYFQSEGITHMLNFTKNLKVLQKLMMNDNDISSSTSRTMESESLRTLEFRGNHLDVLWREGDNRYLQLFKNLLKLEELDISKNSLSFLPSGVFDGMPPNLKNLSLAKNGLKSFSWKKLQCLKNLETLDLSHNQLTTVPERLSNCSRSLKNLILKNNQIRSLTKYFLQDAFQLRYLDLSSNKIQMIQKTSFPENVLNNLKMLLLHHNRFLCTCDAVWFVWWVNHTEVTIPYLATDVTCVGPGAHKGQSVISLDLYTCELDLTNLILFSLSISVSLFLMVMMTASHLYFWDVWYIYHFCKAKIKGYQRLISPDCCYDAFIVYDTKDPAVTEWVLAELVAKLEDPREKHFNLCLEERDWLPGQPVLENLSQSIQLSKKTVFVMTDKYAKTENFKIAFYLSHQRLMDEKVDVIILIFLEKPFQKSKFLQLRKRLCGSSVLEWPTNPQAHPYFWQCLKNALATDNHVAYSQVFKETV
Experiment: TLR7 inhibition reporter assay (HEK-Blue, SEAP)
Settings: HEK-Blue cells overexpressing human TLR7, gardiquimod 7.5 μM stimulation
Units for pIC50: none; it is -log10 of a concentration expressed in mol/L.

{"COMPOUND": "CC(C)c1c(-c2ccnc3[nH]ncc23)[nH]c2ccc(-c3ccc4c(cnn4C)c3)cc12", "OBSERVED RESULT": 6.31}
{"COMPOUND": "Cc1cc(-c2[nH]c3ccc(-c4ccc(NC(C)C)nc4)cc3c2C(C)C)ccn1", "OBSERVED RESULT": 7.08}
{"COMPOUND": "Cc1cc(-c2[nH]c3ccc(-c4nnc(C5CN6CCC5CC6)o4)cc3c2C(C)C)ccn1 (centres unmarked) [Example 213]", "OBSERVED RESULT": 7.33}
{"COMPOUND": "Cc1cc(-c2[nH]c3ccc(-c4nnc(C5CCCNC5)[nH]4)cc3c2C(C)C)cc(C)n1 (centres unmarked)", "OBSERVED RESULT": 7.89}

Ask: // lookup pIC50 for Cc1cc(-c2[nH]c3ccc(-c4nnc(C5CN6CCC5CC6)o4)cc3c2C(C)C)cc(C)n1 (centres unmarked) [Example 297]
Reply: 8.21

Ask: Give the measured pIC50 of CCc1c(-c2ccnc3[nH]ncc23)[nH]c2ccc(-c3ccc(N4CCN(C)CC4)cc3)cc12 .
Reply: 6.84

Ask: pIC50 lookup needed for Cc1cc(-c2[nH]c3ccc(-c4nc(C(=O)NCCCN)co4)cc3c2C(C)C)cc(C)n1 , thanks.
Reply: 7.48

Ask: Bench note: what pIC50 did COc1ccc(-c2[nH]c3ccc(-c4ccnc(N5CCN(C6CCCC6)CC5)c4)cc3c2C(C)C)cc1OC show?
Reply: 6.08

* * *

Biological target: human TLR8 (Homo sapiens (Human))
Sequence (Q9NR97 27-1041): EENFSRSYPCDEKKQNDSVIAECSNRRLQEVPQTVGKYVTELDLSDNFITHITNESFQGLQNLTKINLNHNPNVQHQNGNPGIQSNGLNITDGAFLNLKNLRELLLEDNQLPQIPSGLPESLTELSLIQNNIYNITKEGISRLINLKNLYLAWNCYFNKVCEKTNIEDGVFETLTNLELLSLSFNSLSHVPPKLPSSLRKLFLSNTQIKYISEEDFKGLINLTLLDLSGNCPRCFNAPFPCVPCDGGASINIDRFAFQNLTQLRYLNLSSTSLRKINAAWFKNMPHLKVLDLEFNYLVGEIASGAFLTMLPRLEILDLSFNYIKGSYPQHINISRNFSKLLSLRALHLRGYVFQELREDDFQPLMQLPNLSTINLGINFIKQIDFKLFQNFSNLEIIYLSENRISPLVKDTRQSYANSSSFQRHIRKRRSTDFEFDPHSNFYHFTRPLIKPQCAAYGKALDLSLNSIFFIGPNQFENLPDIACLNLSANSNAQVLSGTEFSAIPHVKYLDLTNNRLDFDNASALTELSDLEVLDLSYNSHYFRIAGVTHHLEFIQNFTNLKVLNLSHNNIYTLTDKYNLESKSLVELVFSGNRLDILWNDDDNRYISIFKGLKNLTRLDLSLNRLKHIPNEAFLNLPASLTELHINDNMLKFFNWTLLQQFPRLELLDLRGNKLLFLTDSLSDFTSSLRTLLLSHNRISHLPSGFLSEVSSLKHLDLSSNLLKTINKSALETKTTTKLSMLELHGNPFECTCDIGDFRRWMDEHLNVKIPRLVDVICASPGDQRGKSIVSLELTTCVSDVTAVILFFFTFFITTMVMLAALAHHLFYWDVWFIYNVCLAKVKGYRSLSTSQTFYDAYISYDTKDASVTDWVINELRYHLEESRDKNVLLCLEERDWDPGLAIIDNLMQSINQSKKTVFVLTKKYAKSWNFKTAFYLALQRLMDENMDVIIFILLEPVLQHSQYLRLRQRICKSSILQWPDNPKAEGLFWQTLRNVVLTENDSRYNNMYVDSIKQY
Experiment: TLR8 inhibition reporter assay (HEK-Blue, SEAP)
Conditions: HEK-Blue cells overexpressing human TLR8, R848 15.9 μM stimulation
Let's look at some molecules and their measured pIC50.
Convention used: pIC50 is expressed as -log10 of the molar concentration.

The following molecules have reported results that may help.
{"MOLECULE": "COc1ccc(-c2[nH]c3ccc(-c4cccc(C(=O)N5CC[C@@H](O)C5)c4)cc3c2CC(F)(F)F)cc1OC [Example 34]", "OBSERVED RESULT": 6.70}
{"MOLECULE": "Cc1cc(-c2[nH]c3ccc(-c4ccnc(N5CCN(C)CC5)c4)cc3c2C(C)C)ccn1 [Example 269]", "OBSERVED RESULT": 8.26}
{"MOLECULE": "CCc1c(-c2ccc(OC)c(OC)c2)[nH]c2ccc(-c3ccc(N4CCNCC4)cc3)cc12 [Example 399]", "OBSERVED RESULT": 7.55}
{"MOLECULE": "Cc1cc(-c2[nH]c3ccc(-c4nnc(Cc5nnn[nH]5)o4)cc3c2C(C)C)ccn1 [Example 76]", "OBSERVED RESULT": 6.32}
{"MOLECULE": "Cc1cc(-c2[nH]c3ccc(-c4cc(NC(=O)OC(C)(C)C)c5nccn5c4)cc3c2C(C)C)cc(C)n1 [Example 303]", "OBSERVED RESULT": 6.79}
{"MOLECULE": "COc1ccc(-c2[nH]c3ccc(-c4nnc(C(=O)NCCCn5ccnc5)o4)cc3c2C(C)C)cc1OC [Example 101]", "OBSERVED RESULT": 7.85}
{"MOLECULE": "Cc1cc(-c2[nH]c3ccc(-c4nnc([C@@H]5CSCN5)o4)cc3c2C(C)C)ccn1 [Example 68]", "OBSERVED RESULT": 7.39}

Ask: Quick one: pIC50 for COc1ccc(-c2[nH]c3ccc(-c4ccc(N5CCN(C(C)C)CC5)nc4)cc3c2C(C)C)cc1OC [Example 393] ?
Reply: 7.96
